# Method Summary: fluorescence interference in NS3h assay format, artefact control for HCV NS3 helicase inhibitor project, biochemical, NIH Clinical Collection (AID 743272);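 also: HCV NS3 helicase with a Cy5 labelled single stranded DNA probe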
# Experimental Conditions: fluorescence interference counterscreen, active compounds read low
Just a reminder that ties go to Criterion not met: only fluorescence ratio strictly below 1 counts as Criterion met.

Solved entries (count: 2):
{"columns": ["Smiles Str", "Category"],
 "data": [
  ["C[C@]12CCC(=O)C=C1CC[C@@H]1[C@@H]2[C@@H](O)C[C@@]2(C)[C@H]1CC[C@]2(O)C(=O)CO", "Criterion met"],
  ["CN(C)CCCN1c2ccccc2Sc2ccc(Cl)cc21", "Criterion met"]
]}

Qu. Report whether reported fluorescence ratio is lower than 1 (strictly) for Nc1ncn([C@@H]2O[C@H](CO)[C@@H](O)[C@H]2O)c(=O)n1
Ans. Criterion not met

Qu. Report whether reported fluorescence ratio is lower than 1 (strictly) for CCc1nc(N)nc(N)c1-c1ccc(Cl)cc1
Ans. Criterion met

Qu. Report whether reported fluorescence ratio is lower than 1 (strictly) for CCC(=O)O[C@]1(C(=O)CCl)[C@@H](C)C[C@H]2[C@@H]3CCC4=CC(=O)C=C[C@]4(C)[C@@]3(F)[C@@H](O)C[C@@]21C
Ans. Criterion met
